EXPERIMENTAL SYSTEM: Tau40 P301L protein (human)
ASSAY COMMENT: cell-based or functional assay
Square brackets hold non-standard residues; d marks the D form. Ends that are not written are not given here.
OBSERVABLE: IC50, Tau40 assay (ThT)

1. [dK][dW][dR][dL][dK][dV][dR][dW] [kwrlkvrw (PEPTIDE ID NO: 207)]
780 nM
2. [dW][dW][dL][dK][dL][dR][dW][dW] [wwlklrww (PEPTIDE ID NO: 81)]
2520 nM

Task: Which IC50, Tau40 assay (ThT) value is on record for [dL][dK][dI][dW][dI][dK][dY][dH] [lkiwikyh (PEPTIDE ID NO: 212)] ?
Result: 810 nM

Task: [dW][dR][dL][dR][dI][dH][dT] [wrlriht (PEPTIDE ID NO: 262)] , same question.
Result: 1330 nM

Task: Same question, [dR][dW][dR][dW][dR][dW] [rwrwrw (PEPTIDE ID NO: 17)] this time
Result: 1460 nM
